assay notes: qHTS Assay for Lipid Storage Modulators (AID 1519)
condition notes: Drosophila S3 cells, BODIPY lipid droplet/cell ratio, laser cytometry; measured here: cell count channel max response; cells loaded with oleic acid
Results filed as inconclusive are left out.
measurement kind: max response

compound | max response
COc1ccc2[nH]cc(CCNc3ncncc3-c3ccccc3CN(C)C)c2c1 | -0.105%

Record summary for "COc1ccccc1CNc1ncnc2ccc(-c3ccccc3C#N)cc12" : reported max response = 16.4%

Record summary for "C[C@@]12CCC(=O)C=C1CC[C@@H]1[C@@H]2[C@H](O)C[C@]2(C)[C@@H]1CC[C@]2(O)C(=O)CO" : reported max response = -11.2%

Record summary for "C[n+]1cccc(C(=O)[O-])c1" : reported max response = -1.12%

Record summary for "CO[C@H]1C[C@@H](O[C@@H]2[C@H](C)[C@H](O[C@@H]3O[C@@H](C)C[C@@H](N(C)C)[C@@H]3O)[C@H](C)C[C@]3(CO3)C(=O)[C@H](C)[C@H](O)[C@H](C)[C@H](C)OC(=O)[C@@H]2C)O[C@@H](C)[C@H]1O" : reported max response = 9.47%

Record summary for "O=S(=O)(c1ccccc1)N1CCC2(CCN(Cc3ccccc3)CC2)CC1" : reported max response = 18.1%

* * *

assay notes: NFAT Signaling Pathway (AID 444);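 further: carbachol stimulus at about its EC50 of 1 µM final; on the % scale 0 is the no-effect control and ±100 the full control effect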
condition notes: Jurkat NFAT-bla M1, carbachol, beta-lactamase ratio, 5 h; at 7.69 µM (top of the series) unless noted
Inconclusive results are not listed.
measurement kind: activity change, negative = inhibition (%)
The reply should contain only the number, in %.

Some molecules with recorded activity change, negative = inhibition:
sample smiles | activity change, negative = inhibition / %
Cc1nc2cnc(Nc3ccccc3)nc2n(C[C@H]2CCCO2)c1=O | 9.56
Cc1noc(C)c1C(=O)N1CCC[C@@]2(CCN(Cc3cc(C(F)(F)F)cc(C(F)(F)F)c3)C2)C1 | 14.8
COc1ccccc1-c1cc(NCc2cnc(C)cn2)ncn1 | 2.34
O=C(c1csnn1)N1CCC[C@@]2(CCN(c3ccccc3)C2)C1 | -8.4

Read the next record carefully.
Record summary for "Cn1cccc1C(=O)N1CCC2(CCN(C(=O)Nc3cccc(C#N)c3)CC2)CC1" : reported activity change, negative = inhibition = 8.67

* * *

tgt: Dual specificity protein kinase CLK4 (Homo sapiens)
assay notes: qHTS Assay for Inhibitors of CDC-like Kinase 4 (Kinase-Glo Assay) (AID 1770); further: nearly all actives have a fitted effect of over 65% in size; further: potency means the concentration at half of the fitted maximal effect
condition notes: recombinant Clk4, Kinase-Glo ATP depletion luminescence; series mostly up to 66.7 µM
Description: NIH Molecular Libraries Probe Production Centers Network [MLPCN] NIH Chemical Genomics Center [NCGC] […] Following the Clk4 reaction, the remaining ATP levels were detected using Promega Kinase-Glo technology wherein the remaining ATP from the kinase reaction is detected using Ultra-Glo luciferase and D-luciferin which generates a bioluminescence signal from the ATP. […]
Records with an inconclusive call do not appear. The source made the active and inactive calls. Calls come from the whole dose curve; as a rule, active = well fitted inhibition curve with a large enough effect; inconclusive = small, poorly fitted or top-dose-only effect; inactive = flat fitted curve, though single readings scatter.
measurement kind: Potency

Some compounds with recorded Potency:
sample smiles | tgt | Potency
COCCn1c(=O)c(-c2ccc(OC)cc2)nc2cnc(N3CCN(C)CC3)nc21 | Dual specificity protein kinase CLK4 (Homo sapiens) | inactive
Cc1noc(C)c1-c1nc(Nc2ccc(F)cc2)c2ccccc2n1 | Dual specificity protein kinase CLK4 (Homo sapiens) | inactive
COc1ccc(Oc2ncc3nc(-c4ccc(F)cc4)c(=O)n(Cc4cccs4)c3n2)cc1 | Dual specificity protein kinase CLK4 (Homo sapiens) | inactive
COc1ccc(-c2nc3cnc(Nc4cccc(OC)c4)nc3n(Cc3cccs3)c2=O)cc1 | Dual specificity protein kinase CLK4 (Homo sapiens) | inactive

Record summary for "Cc1noc(C)c1-c1ccc2ncnc(NCCN3CCOCC3)c2c1" : reported Potency = 8.91 µM (active)

Record summary for "Cc1ccccc1-c1cncnc1Nc1ccccc1" : reported Potency = inactive

Record summary for "COc1ncc2ncc(=O)n(C3CC3)c2n1" : reported Potency = inactive
